Kindly supply the reported composite z-score values for the records listed here.
# Tested Target: Alpha-bungarotoxin (Bungarus multicinctus) (UniProt P60615)
# Sequence (P60615 whole entry, looked up): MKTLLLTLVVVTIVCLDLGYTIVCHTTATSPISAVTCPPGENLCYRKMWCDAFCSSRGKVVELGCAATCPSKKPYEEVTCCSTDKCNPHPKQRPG
# Assay Info: alpha-bungarotoxin binders on microarray, profiling panel, artefact control for SMM control protein annotation, biochemical, small-molecule microarray, Alexa647 label, 635/667 nm fluorescence (AID 1117)
# Run Parameters: alpha-BTX-A647 binding fluorescence, higher = more signal
Could you keep your reply to the number by itself?

I have this compound here, COc1ccc([Si](C)(C)[C@@H]2[C@@H](CCn3cc(CCO)nn3)O[C@]3(C(=O)N(Cc4ccc(N5C(=O)c6cccc7cccc5c67)cc4)c4ccccc43)[C@H]2C)cc1 , and I need its recorded composite z-score.
1.6

Name the recorded composite z-score for O=C1O[C@@H](c2ccccc2)[C@@H](c2ccccc2)N2[C@@H](c3ccc(OCCO)cc3)[C@]3(C(=O)Nc4ccc(C#CC5(O)CCCCCC5)cc43)[C@@H](C(=O)NC[C@H](O)c3ccccc3)[C@H]12 .
2.42

Need composite z-score of COCCOC(=O)N1C(=O)[C@@]2(c3cc(C#CC4(O)CCCCCC4)ccc31)[C@H](c1ccc(O)cc1)N1[C@H](c3ccccc3)[C@H](c3ccccc3)OC(=O)[C@H]1[C@@H]2C(N)=O , thanks.
1.97

Please look up its composite z-score: COCCCNC(=O)[C@@]1(Cc2ccccc2)N=C(c2ccc(OCCCO)cc2)O[C@H]1c1ccccc1N=[N+]=[N-]
1.35

Tell me the measured composite z-score of CCOC(=O)C[C@H]1[C@H](OC(=O)c2ccc(-c3ccccc3)cc2)[C@@H](NC(=O)c2ccccc2)c2cc(OCCCO)ccc2N1C(=O)c1ccccc1 , please.
1.09

So what's the measured composite z-score for this one? C=C(CCCC)/C(=C/C[C@H](OC(=O)c1ccncc1)c1ccc(CO)o1)c1cnc2ccccc2c1
1.8

Which composite z-score value belongs to C=C(COC)C(=O)CC[C@H](OC(=O)c1cccnc1)c1cccc(OCCO)c1 ?
-0.923

Recorded composite z-score of COCCCNC(=O)[C@@]1(Cc2ccccc2CN=[N+]=[N-])COC(c2ccc(OCCCO)cc2)=N1 , please.
0.911

Tell me the measured composite z-score of CC(=O)NCCCC[C@@H]1NC(=O)[C@@H]2C[C@H](C(=O)O)[C@H](c3cccc(OCCO)c3)N2C1=O , please.
1.03

Quick one: composite z-score for C=CCN1C(=O)[C@@]2(O[C@@H](CCn3cc(CCO)nn3)[C@H]([Si](C)(C)c3ccc(OC)cc3)[C@H]2C)c2cc(N3C(=O)c4cccc5cccc3c45)ccc21 ?
1.6

Look at this compound and give its reported composite z-score. CC(C)CCC[C@@H](C)[C@H]1CC[C@@]2(C)C3=C(CC[C@]12C)[C@@]1(C)CC[C@H](OC(=O)CCl)C(C)(C)C1CC3 (stereo not given in full)
0.587

// composite z-score lookup, key: COc1ccc([Si](C)(C)[C@H]2[C@H](CC(=O)N(CCO)Cc3ccccc3)O[C@@]3(C(=O)N(Cc4ccc(N5CCC5=O)cc4)c4ccccc43)[C@@H]2C)cc1
1.33

Query (compound): COCCCNC(=O)[C@@]1(CCS(=O)(=O)c2ccccc2)N=C(c2ccc(OCCCO)cc2)O[C@H]1c1ccccc1CN=[N+]=[N-] ; field requested: composite z-score
2.42

Query (compound): O=C1c2ccccc2C(=O)c2cc([C@H]3Oc4ccccc4S(=O)(=O)N4CCC[C@@H]34)ccc21 ; field requested: composite z-score
-0.744

Please report the recorded composite z-score for O=C1c2ccccc2[C@@]2(Cc3ccccc3N(CC(F)(F)F)C2=O)[C@H](c2ccc(CO)cc2)N1Cc1ccccc1C(F)(F)F .
-1.7
